B1: TPR t1 (parent)
chain: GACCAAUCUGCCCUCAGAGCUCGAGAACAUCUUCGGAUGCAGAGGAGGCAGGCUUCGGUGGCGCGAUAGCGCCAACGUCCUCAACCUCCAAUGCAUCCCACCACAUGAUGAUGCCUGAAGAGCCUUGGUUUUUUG

Variants of: B1
Experiment: polymerase ribozyme fitness, log enrichment relative to wild type (log ratio); higher = more active; in vitro selection for triplet polymerase activity
ATTRIBUTE_MEASURED: polymerase ribozyme fitness (log ratio)
One number for each entry.

Examples with answers:
U129C : -0.185
C12G A26C G60U : -3.25
C40A U59A : -1.29
G61U G63A U96A A103G A111U G113A U132C : -6.45
G61A A84U C114U : -2.12

Batch of 6 variants: report polymerase ribozyme fitness (log ratio) for each.
1. G47U A66U U125G
2. C12U A75G G128A
3. C64U C99U
4. C28U G47C C73A C97U
5. C53A C80U U106A G135U
6. C70U C72U A95C A111U

1: -3.75; 2: -1.43; 3: -2.88; 4: -3.8; 5: -3.96; 6: -5.58

Batch of 2 variants: report polymerase ribozyme fitness (log ratio) for each.
1. U21A A27C U32G G71A U112C
2. C89U C101A

[-5.9, -1.39]

Batch of 8 variants: report polymerase ribozyme fitness (log ratio) for each.
1. U9G C70A C76U
2. C99U U132C
3. G19C U78C G110C
4. C123A C124U
5. C31U G36U G60C C123U
6. A6C G47A C86U U133G
7. C12A G19U C73A G77C
8. A74U U78C G120C

1. -3.45
2. -3.53
3. -5.42
4. 2.15
5. -5.45
6. -0.584
7. -5.03
8. 0.366

Entry C11G G61U C86A U106G C114U — recorded polymerase ribozyme fitness (log ratio) = -4.18
